# System: KM12 colon
# test description: NCI tumour cell line growth inhibition, 48 h; in the data active = GI50 below about 0.43 µM; inactive = the rest
Pick one: active, inactive

Use these answered entries as a reference point.
- compound: "COc1ccc2cn3c4ccc(O)cc4[nH]c(=O)c3c2c1"
  assigned category: "active"
- compound: "NCCNc1nc2ccc(F)cc2c2c(=O)c3cc(F)ccc3sc12"
  assigned category: "inactive"
- compound: "Clc1ccc2c(NCCNc3nc(N4CCCCC4)nc4ccccc34)ccnc2c1"
  assigned category: "inactive"

Input line: Test call, this compound: "O=C(/C=C/c1cc(O)ccc1O)c1ccc(Cl)cc1"
Output line: inactive

Input line: What would you report for "COc1ccccc1CNC(=O)/C=C/c1ccc(O)c(O)c1" ?
Output line: inactive

---

Below, each entry is listed with its recorded TGI.
# Tested on: M14 melanoma
# test description: NCI tumour cell line growth inhibition, 48 h
Unit µM implied. Number only.

Use these answered entries as a reference point.
- compound: "CCOC(=O)CC1C(CNC(=O)NC)OC(n2cnc3c(NC(=O)Nc4ccccc4)ncnc32)C1O[Si](C)(C)C(C)(C)C (stereo not given)"
  TGI (µM): 11.6
- compound: "CCCCc1n(Cc2ccc3ccccc3n2)cc[n+]1Cc1ccc2ccccc2c1"
  TGI (µM): 2.45
- compound: "O=C1/C(=C/c2ccc([N+](=O)[O-])cc2)Sc2scc(-c3cccc([N+](=O)[O-])c3)[n+]21"
  TGI (µM): 17.5
- compound: "CN(CCc1ccccn1)c1ccc2c(c1)Cc1ccccc1-2"
  TGI (µM): 94.3
- compound: "CN1CCC(n2cnc(-c3ccc(F)cc3)c2-c2ccnc(Nc3ccccc3)n2)CC1"
  TGI (µM): 14.7

Please examine the following record next.
Input line: What TGI value was documented for this compound, "O=C1c2ccccc2C(=O)c2c1sc1nc3ccccc3n21" ?
Output line: 3.15

---

# System: PC-3 prostate
# test description: NCI tumour cell line growth inhibition, 48 h
Below, each entry is listed with its recorded TGI.

Use these answered entries as a reference point.
- molecule: "Clc1ccc(C2=Cc3nc2c(-c2ccccc2)c2ccc([nH]2)c(-c2ccccc2)c2nc(c(-c4ccccc4)c4ccc([nH]4)c3-c3ccccc3)C=C2)cc1"
  study target: "PC-3 prostate"
  TGI: "> 62.5 µM"
- molecule: "C=C(C)[C@@H]1CC[C@]2(COC(=O)c3ccccc3C(=O)O)CC[C@]3(C)[C@H](CC[C@@H]4[C@@]5(C)CC[C@H](OC(=O)c6ccccc6C(=O)O)C(C)(C)[C@@H]5CC[C@]43C)[C@@H]12"
  study target: "PC-3 prostate"
  TGI: "> 100 µM"

Please examine the following record next.
Input line: What TGI value was documented for this molecule, O=C(Oc1c(Cl)c(Cl)c(Cl)c(Cl)c1Cl)C1CCCN1C(=O)OCc1ccccc1 (stereo not drawn) ?
Output line: 11.6 µM

---

# System: SK-MEL-5 melanoma
# test description: NCI tumour cell line growth inhibition, 48 h
endpoint label: TGI

- compound: "CN1C(CC(O)c2ccccc2)CCCC1CC(O)(c1ccccc1)c1ccccc1 (centres undefined)"
  study target: "SK-MEL-5 melanoma"
  TGI: "31 µM"
- compound: "O=C(/C=C/c1ccc(O)c(O)c1)O[C@H]1CCCC[C@@H]1OC(=O)/C=C/c1ccc(O)c(O)c1"
  study target: "SK-MEL-5 melanoma"
  TGI: "21.4 µM"

Please examine the following record next.
Input line: What TGI value was documented for this compound, "C=CC(=O)N1CCC(CNc2ncnc(N)c2-c2ccc(Oc3ccccc3)cc2)CC1" ?
Output line: 27.6 µM

---

Below, each entry is listed with its recorded TGI.
# Tested on: NCI-H460 lung
# test description: NCI tumour cell line growth inhibition, 48 h

Use these answered entries as a reference point.
- compound: "O=C(/C=C/c1cc(O)ccc1O)c1ccc(Cl)cc1"
  study target: "NCI-H460 lung"
  TGI: "> 100 µM"
- compound: "Cc1ccc(S(=O)(=O)Nc2cc(=O)[nH]c3c2CCC3)cc1"
  study target: "NCI-H460 lung"
  TGI: "> 100 µM"
- compound: "COc1ccc2c3c1OC1C4(CCC5C(C2)N(CC2CC2)CCC351)OCCO4 (stereo unspecified)"
  study target: "NCI-H460 lung"
  TGI: "> 100 µM"
- compound: "N#Cc1cc2c(=S)[nH]c(=S)[nH]c2nc1SCc1ccccc1"
  study target: "NCI-H460 lung"
  TGI: "> 100 µM"
- compound: "CC[C@H](C)C(=O)O[C@H]1C[C@@H](C)C=C2C=C[C@H](C)[C@H](CC[C@@H]3C[C@@H](O)CC(=O)O3)[C@H]21"
  study target: "NCI-H460 lung"
  TGI: "> 100 µM"
- compound: "CN1CCN(c2ccc3nc(-c4ccc5nc(CCCc6ccc(N(CCCl)CCCl)cc6)[nH]c5c4)[nH]c3c2)CC1"
  study target: "NCI-H460 lung"
  TGI: "> 100 µM"

Input line: What TGI value was documented for this compound, COc1cc([N+](=O)[O-])cc2c1NC(=O)C2(C)SC (stereo unspecified) ?
Output line: > 100 µM

Input line: What would you report for O=C1NC(=O)C23C(=O)NC(=O)C12C1C=CC3CC1 (stereo unspecified) ?
Output line: > 10 µM

Input line: What would you report for CCCCSCCC(N)P(=O)(O)O (stereo unspecified) ?
Output line: > 100 µM

Input line: What would you report for "CC(C)(C)[Si](C)(C)O/N=C\c1cccc(O[Si](C)(C)C(C)(C)C)c1" ?
Output line: 32.6 µM

---

# Test system: HCC-2998 colon
# test description: NCI tumour cell line growth inhibition, 48 h
Below, each entry is listed with its recorded GI50.

- compound: "Fc1cccc(-c2nc(-c3c[nH]c4ncccc34)cs2)c1"
  GI50: "> 100 µM"
- compound: "CCCCc1n(Cc2ccc3ccccc3n2)cc[n+]1Cc1ccc2ccccc2c1"
  GI50: "0.641 µM"
- compound: "COc1ccc(/C=N/C2=NNC(C)(c3ccccc3O)N2C(Cc2c[nH]c3ccccc23)C(=O)O)cc1 (centres undefined)"
  GI50: "3.53 µM"
- compound: "O=c1[nH]c(=O)n(C2CC(O)C(CO)O2)cc1F (centres undefined)"
  GI50: "33.6 µM"
- compound: "COC(=O)C(Br)(C(=O)OC)C(Br)C(Br)C(Br)c1ccccc1 (centres undefined)"
  GI50: "17.5 µM"

Input line: What GI50 value was documented for this compound, "COc1cc(-c2cn(-c3ccc(F)cc3)c(=O)[nH]2)cc(OC)c1OC" ?
Output line: > 100 µM

Input line: What would you report for "COc1cc2c3c(n(CCCN=[N+]=[N-])c(=O)c2cc1OC)-c1ccc(NC(C)=O)cc1C3=O" ?
Output line: > 50 µM

Input line: What would you report for "CCN1Cc2c(/C=C/c3ccccc3)nc3ccc(OC)cc3c2N(c2cccc(Cl)c2)C1" ?
Output line: 1.64 µM

Input line: What would you report for "COc1ccc(-n2nc(C(=O)NCC(=O)Nc3nc4cc(OC)ccc4s3)c3ccccc3c2=O)cc1" ?
Output line: 0.589 µM

---

Below, each entry is listed with its recorded TGI.
# Tested on: UO-31 renal
# test description: NCI tumour cell line growth inhibition, 48 h

Use these answered entries as a reference point.
- compound: "COc1cc([N+](=O)[O-])cc2c1NC(=O)C2(C)SC (stereo not given)"
  reading: "> 100 µM"
- compound: "COc1ccc(OC)c(-c2nc3sc(C)cn3c2/C=C2\\C(=O)N(C)c3ccccc32)c1"
  reading: "59.7 µM"

Please examine the following record next.
Input line: Return TGI measured with UO-31 renal given this compound: "O=C(O)c1ccc(C2=Nc3cccc4cccc(c34)N2)cc1"
Output line: > 100 µM

---

# Test system: UACC-257 melanoma
# test description: NCI tumour cell line growth inhibition, 48 h
endpoint label: TGI

- molecule: "O=C(O)c1ccc(C2=Nc3cccc4cccc(c34)N2)cc1"
  TGI: "> 100 µM"

Input line: What TGI value was documented for this molecule, "O=C1c2ccccc2-c2c1c1ccc3ccccc3c1n2-c1ccccc1" ?
Output line: > 100 µM

Input line: What would you report for COc1ccc(N2C(=O)C3c4[nH]c5ccc(OC)cc5c4C4CCC(c5ccccc5)CC4C3C2=O)cc1 (configuration not stated) ?
Output line: > 88.9 µM

Input line: What would you report for COc1ccc2c3c1OC1C4(CCC5C(C2)N(CC2CC2)CCC351)OCCO4 (configuration not stated) ?
Output line: > 100 µM

Input line: What would you report for "COc1cc2cc[n+](C)c(Cc3ccc(Oc4cc(Cc5c6cc(OC)c(OC)cc6cc[n+]5C)ccc4OC)cc3)c2cc1OC" ?
Output line: > 100 µM

Input line: What would you report for COC(=O)C1=C(C(=O)OC)N(c2ccncc2)C(c2ccco2)=CC1c1ccccc1[N+](=O)[O-] (configuration not stated) ?
Output line: 4.25 µM

Input line: What would you report for CC12OC(C(=O)C13CCC3)C1C(=O)c3c(O)ccc(O)c3C(=O)C12 (configuration not stated) ?
Output line: 7.81 µM

Input line: What would you report for "Nc1nc(Cl)cc(NCC2(CO)CC=CC2)n1" ?
Output line: > 100 µM

Input line: What would you report for CC/C(=N/O)C(C)C(=O)CCC(=O)Nc1ccc(Cl)cc1 (configuration not stated) ?
Output line: > 100 µM

Input line: What would you report for "COc1cccc(C=C(C#N)C#N)c1OC" ?
Output line: > 100 µM

Input line: What would you report for "COc1c(OC)c(OC)c2c(=O)c(OC)c(-c3ccc4c(c3)OCO4)oc2c1OC" ?
Output line: > 100 µM

Input line: What would you report for "COc1ccc(-c2cncn2-c2ccc(-c3nc4cc(OC)c(OC)c(OC)c4s3)cc2)cc1N" ?
Output line: > 100 µM

Input line: What would you report for "Nc1ncc(-c2ccc3ncnc(N4CCc5cc(F)c(Cl)cc54)c3c2)cc1C(F)(F)F" ?
Output line: > 100 µM

Recorded values, source PubChem BioAssay (NCI).
